Just for reference, patent US20230111914A1 is where these values come from.

Below is a list of entries, each paired with its recorded NO IC50 Rel. to RTA 402 value.
# System: IFNγ-induced NO production in RAW 264.7 cells
# procedure-summary: Nitric oxide suppression assay (IFNγ-induced NO production, Griess nitrite readout)
# Assay type: cell-based, mouse
Marks after values point to notes of the source that are not given here.
test-readout: NO IC50 Rel. to RTA 402

{"columns": ["compound", "reported-measurement"],
 "data": [
  ["CC1(C)CC[C@]2(n3ccoc3=O)CC[C@]3(C)[C@H](C(=O)C=C4[C@@]5(C)C=C(C#N)C(=O)C(C)(C)[C@@H]5CC[C@]43C)[C@@H]2C1 [Compound T40]", "1.37 ± 0.18^d fold"],
  ["CC1(C)CC[C@]2(n3nccc3C(F)(F)F)CC[C@]3(C)[C@H](C(=O)C=C4[C@@]5(C)C=C(C#N)C(=O)C(C)(C)[C@@H]5CC[C@]43C)[C@@H]2C1 [Compound T59]", "12.08 ± 2.93^d fold"],
  ["CC1(C)CC[C@]2(CN3CCC3=O)CC[C@]3(C)[C@H](C(=O)C=C4[C@@]5(C)C=C(C#N)C(=O)C(C)(C)[C@@H]5CC[C@]43C)[C@@H]2C1 [Compound T10]", "0.45 ± 0.08^g fold"],
  ["[2H]C([2H])([2H])C(=O)NC[C@]12CCC(C)(C)C[C@H]1[C@H]1C(=O)C=C3[C@@]4(C)C=C(C#N)C(=O)C(C)(C)[C@@H]4CC[C@@]3(C)[C@]1(C)CC2 [Compound T52]", "0.28 ± 0.13^e fold"],
  ["CCC(=O)N[C@]12CCC(C)(C)C[C@H]1[C@H]1C(=O)C=C3[C@@]4(C)C=C(C#N)C(=O)C(C)(C)[C@@H]4CC[C@@]3(C)[C@]1(C)CC2 [Compound 63189, reference compound]", "4.06 fold"]
]}
